tested on: IGROV-1; assay: NCI tumour cell line growth inhibition, 48 h
Structures can show the parent of a compound that is named as a salt. Activity calls are given as the source filed them. Cut-off read from the data, not from the text of the source: active = GI50 up to about 1.1 µM and inactive = higher.
Outcome codes: active, inactive

compound: NCCS [CYSTEAMINE HYDROCHLORIDE]
target desc: IGROV-1
classification: inactive

compound: N#Cc1c(-c2ccco2)cc(-c2ccc(NCc3nc4ccccc4[nH]3)cc2)nc1N
target desc: IGROV-1
classification: inactive

compound: COc1cccc(C2c3cc4c(cc3OC(N3CCOCC3)C2C)OCO4)c1O (configuration not stated)
target desc: IGROV-1
classification: inactive

compound: O=C1C2=C(c3ccccc31)C(c1ccc(Cl)cc1)N1C(=O)CCSC1=N2 (configuration not stated)
target desc: IGROV-1
classification: inactive

compound: CC(C)C1C(=O)NC(CO)Cc2c[nH]c3c(C(c4c[nH]c5ccccc45)C(O)CO)ccc(c23)N1C (configuration not stated)
target desc: IGROV-1
classification: inactive

compound: Cc1cc(O)c2c(c1)CC(O)C1=C2C(=O)c2c(O)ccc(OC3CC(O)C(OC4CC(OC5CCC(O)C(C)O5)C(O)C(C)O4)C(C)O3)c2C1=O (configuration not stated)
target desc: IGROV-1
classification: inactive

compound: CCOC(=O)CCC(NC(=O)N1CCN(c2c(C)nc(C)nc2O)CC1)C(=O)OCC (configuration not stated)
target desc: IGROV-1
classification: inactive

compound: CC(=O)C1=C(C)NC2C=CC=CN12 (configuration not stated)
target desc: IGROV-1
classification: inactive

compound: CN(C)CCNCCCNc1c2ccccc2nc2cccc([N+](=O)[O-])c12
target desc: IGROV-1
classification: active

compound: Brc1ccc(C2SCc3nc4ccccc4n32)cc1 (configuration not stated)
target desc: IGROV-1
classification: inactive

compound: O=C1C2C(C(=O)N1Cc1ccccc1)N(Cc1ccccc1)C(=O)N2Cc1ccccc1 (configuration not stated)
target desc: IGROV-1
classification: inactive

compound: C/C(CC1SCCCS1)=C(/C)CC1SCCCS1
target desc: IGROV-1
classification: inactive

compound: C=C1C(=O)OC2CC1C(OC(=O)/C=C/c1ccccc1)C/C(C)=C/CC/C(C)=C/CCC2(C)O (configuration not stated)
target desc: IGROV-1
classification: inactive

compound: COc1cccc2ccc(C(=O)c3ccccc3)nc12
target desc: IGROV-1
classification: inactive

compound: CC(C)CS(=O)(=O)/C(=C(\c1ccc(Br)cc1)S(=O)(=O)CC(C)C)c1ccc(Br)cc1
target desc: IGROV-1
classification: inactive

compound: COC(=O)/C(=N\Nc1nc(S)nn1N)C(C#N)c1ccccc1 (configuration not stated)
target desc: IGROV-1
classification: inactive

compound: CCOC(=O)C(NC(=O)CC(C)C)(Nc1ccc(C(F)(F)F)cc1)C(F)(F)F (configuration not stated)
target desc: IGROV-1
classification: inactive

compound: O=C1c2ccccc2C(=O)N1C/C=N/NS(=O)(=O)c1ccc2ccccc2c1
target desc: IGROV-1
classification: inactive

compound: N#CC(/C(CCCC(=O)Nc1cccc([N+](=O)[O-])c1)=N/NC(=O)c1cc2ccccc2cc1O)c1ccccc1 (configuration not stated)
target desc: IGROV-1
classification: inactive

compound: COC(=O)C[S+]([O-])c1ccccc1 (configuration not stated)
target desc: IGROV-1
classification: inactive

compound: CC(C)(C)OC(=O)N1C/C=C\C(=O)C2(OCCO2)c2ccccc21
target desc: IGROV-1
classification: inactive

compound: CCN(CC)CCNC(=O)c1cn2c(ccc3sc4ccccc4c(=O)c32)n1
target desc: IGROV-1
classification: inactive

compound: Clc1cc(OC2C3CC4CC(C3)CC2C4)nc(Cl)n1 (configuration not stated)
target desc: IGROV-1
classification: inactive

compound: Cc1ccc(NC(=O)C(=O)C(C#N)c2ccccc2C)cc1C (configuration not stated)
target desc: IGROV-1
classification: inactive

compound: COC(=O)CCC(=O)NC1=C(Nc2ccccc2)C(=O)c2ccccc2C1=O
target desc: IGROV-1
classification: inactive

compound: CCOc1ccc(NCC2CC/C(=C\c3ccccc3OC)C2=O)cc1 (configuration not stated)
target desc: IGROV-1
classification: inactive

compound: CC(=S)NC=C(C(N)=O)C(N)=O
target desc: IGROV-1
classification: inactive

compound: Cc1cc(O)nc(NN2C(Cl)C(=O)C2c2ccco2)n1 (configuration not stated)
target desc: IGROV-1
classification: inactive

compound: CN1C/C(=C\c2cccs2)C(=O)/C(=C/c2cccs2)C1
target desc: IGROV-1
classification: inactive

compound: COC(=O)c1cc(C#N)[nH]c1-c1ccsc1
target desc: IGROV-1
classification: inactive

compound: COc1cc(OC)cc(-c2nc3cc(F)ccc3s2)c1
target desc: IGROV-1
classification: inactive

compound: CCN(CC)c1ccc2cc(C(N)=O)c(=N)oc2c1
target desc: IGROV-1
classification: inactive
